# System: Moraxella catarrhalis
# Measurement description: MIC against Gram-negative bacteria: Moraxella catarrhalis
# Format: cell-based
# Measurement conditions: M. catarrhalis; 10 h cultivation at 37° C.

[
  {
    "Substance": "PRT1042 (SGFFCPSTHSCQNGGVFQTPQGSCSCPPGWMGTICS; listed as Homo sapiens)",
    "Result unit": "µg/mL",
    "MIC": 12.5
  },
  {
    "Substance": "PRT956 (NIDDCAFASCTPGSTCIDRVASFSCMCPEGKAGLLCH; listed as Homo sapiens)",
    "Result unit": "µg/mL",
    "MIC": 12.5
  },
  {
    "Substance": "PRT968 (LEDPCHSGPCAGRGVCQSSVVAGTARFSCRCPRGFRGPDCS; listed as Homo sapiens)",
    "Result unit": "µg/mL",
    "MIC": 25
  },
  {
    "Substance": "PRT1004 (LRPSCADSPCRNRATCQDSPQGPRCLCPTGYTGGSCQ; listed as Homo sapiens)",
    "Result unit": "µg/mL",
    "MIC": 25
  }
]

====

# Test system: Serratia marcescens
# Measurement description: MIC against Gram-negative bacteria: Serratia marcescens
# Format: cell-based
# Measurement conditions: S. marcescens; 10 h cultivation at 37° C.
Listing of entries alongside the reported MIC.

[
  {
    "Substance": "PRT1025 (GHNYCSVNNGGCTHLCLATPGSRTCRCPDNTLGVDCI; listed as Homo sapiens)",
    "MIC, µg/mL": 50
  },
  {
    "Substance": "PRT982 (VLSPCESQPCQHGGQCRPSPGPGGGLTFTCHCAQPFWGPRCE; listed as Homo sapiens)",
    "MIC, µg/mL": 50
  },
  {
    "Substance": "PRT1018 (DVDECETQGPPHCRNGGTCQNSAGSFHCVCVSGWGGTSCE; listed as Homo sapiens)",
    "MIC, µg/mL": 25
  },
  {
    "Substance": "PRT914 (DARTCGSLRCLNGGTCISGPRSPTCLCLGPFTGPECQ; listed as Homo sapiens)",
    "MIC, µg/mL": 12.5
  },
  {
    "Substance": "PRT909 (LVDECSPSPCQNGATCTDYLGGYSCKCVAGYHGVNCS; listed as Homo sapiens)",
    "MIC, µg/mL": 12.5
  },
  {
    "Substance": "PRT995 (ETNECASAPCLNHADCHDLLNGFQCICLPGFSGTRCE; listed as Homo sapiens)",
    "MIC, µg/mL": 12.5
  },
  {
    "Substance": "PRT964 (NIDDCASNPCTFGVCRDGINRYDCVCQPGFTGPLCN; listed as Homo sapiens)",
    "MIC, µg/mL": 50
  },
  {
    "Substance": "PRT997 (EVDECLSDPCPVGASCLDLPGAFFCLCPSGFTGQLCE; listed as Homo sapiens)",
    "MIC, µg/mL": 25
  }
]

====

# System: Aeromonas hydrophila
# Measurement description: MIC against Gram-negative bacteria: Aeromonas hydrophila
# Assay type: cell-based
# Measurement conditions: Aeromonas hydrophila; 96-well plate, 5×10^5 CFU/mL, 37° C., 10 h
Listing of entries alongside the reported MIC against A. hydrophila.
Quantity: MIC against A. hydrophila

[
  {
    "Substance": "PRT1271 (DTNECSINNGGCQQVCVNTVGSYECQCHPGYKLHWNKKDCV; listed as Homo sapiens)",
    "Quantity": "MIC against A. hydrophila",
    "Result": "50 µg/mL"
  },
  {
    "Substance": "PRT1247 (WGARCEHACQCQHGTCHPRSGACRCEPGWWGAQCA; listed as Homo sapiens)",
    "Quantity": "MIC against A. hydrophila",
    "Result": "12.5 µg/mL"
  },
  {
    "Substance": "PRT1289 (LAEPCRGLQCLHGHCQASGTKGAHCVCDPGFSGELCE; listed as Homo sapiens)",
    "Quantity": "MIC against A. hydrophila",
    "Result": "12.5 µg/mL"
  },
  {
    "Substance": "PRT1199 (AFCEEGCRYGGTCVAPNKCVCPSGFTGSHCE; listed as Homo sapiens)",
    "Quantity": "MIC against A. hydrophila",
    "Result": "25 µg/mL"
  },
  {
    "Substance": "PRT1287 (EPCRKLYCLHGICQPNATPGPMCHCEAGWVGLHCD; listed as Homo sapiens)",
    "Quantity": "MIC against A. hydrophila",
    "Result": "50 µg/mL"
  },
  {
    "Substance": "PRT1318 (DCTQCPGGFSNPCYGKGNCSDGIQGNGACLCFPDYKGIACH; listed as Homo sapiens)",
    "Quantity": "MIC against A. hydrophila",
    "Result": "12.5 µg/mL"
  },
  {
    "Substance": "PRT1248 (SACYCSATSRCDPQTGACLCHAGWWGRSCN; listed as Homo sapiens)",
    "Quantity": "MIC against A. hydrophila",
    "Result": "12.5 µg/mL"
  },
  {
    "Substance": "PRT1295 (RTSPCDNFDCQNGAQCIVRINEPICQCLPGYQGEKCE; listed as Homo sapiens)",
    "Quantity": "MIC against A. hydrophila",
    "Result": "50 µg/mL"
  }
]

====

Listing of entries alongside the reported MIC against E. cloacae.
# System: Enterobacter cloacae
# Measurement description: MIC against Gram-negative bacteria: Enterobacter cloacae
# Assay type: cell-based
# Measurement conditions: 96-well plate, 5×10^5 CFU/mL, 37° C., 10 h

[
  {
    "Substance": "PRT525 (CNCNRDGTEPGVCDPGTGACLCKENVEGTECNVCREGSFHLDPANLKGCTS; listed as Homo sapiens)",
    "Result unit": "µg/mL",
    "MIC against E. cloacae": 25
  },
  {
    "Substance": "PRT552 (CACGPAAEGSECHPQSGQCHCRPGTMGPQCRECAPGYWGLPEQGCRR; listed as Homo sapiens)",
    "Result unit": "µg/mL",
    "MIC against E. cloacae": 50
  },
  {
    "Substance": "PRT509 (CNCSTVGSLDFQCNVNTGQCNCHPKFSGAKCTECSRGHWNYPRCNL; listed as Homo sapiens)",
    "Result unit": "µg/mL",
    "MIC against E. cloacae": 12.5
  },
  {
    "Substance": "PRT538 (CPCPLPHLANFAESCYRKNGAVRCICNENYAGPNCERCAPGYYGNPLLIGSTCKK; listed as Homo sapiens)",
    "Result unit": "µg/mL",
    "MIC against E. cloacae": 25
  }
]

====

Listing of entries alongside the reported MIC against E. cloacae.
# Test system: Enterobacter cloacae
# Measurement description: MIC against Gram-negative bacteria: Enterobacter cloacae
# Assay type: cell-based
# Measurement conditions: Enterobacter cloacae; 96-well plate, 5×10^5 CFU/mL, 37° C., 10 h
Quantity: MIC against E. cloacae (µg/mL)

[
  {
    "Substance": "PRT1203 (DIDECAEGRHYCRENTMCVNTPGSFMCICKTGYIRIDDYSCT; listed as Homo sapiens)",
    "Quantity": "MIC against E. cloacae",
    "Result unit": "µg/mL",
    "Recorded number": 12.5
  },
  {
    "Substance": "PRT1237 (LGPGCLDNCRGHGDCLREQCICDPGYSGPNCY; listed as Homo sapiens)",
    "Quantity": "MIC against E. cloacae",
    "Result unit": "µg/mL",
    "Recorded number": 12.5
  },
  {
    "Substance": "PRT1283 (NTDDCVDHACANGGVCVDGVGNYTCQCPLQYEGKACE; listed as Homo sapiens)",
    "Quantity": "MIC against E. cloacae",
    "Result unit": "µg/mL",
    "Recorded number": 12.5
  },
  {
    "Substance": "PRT1326 (AINACEISNGGCSAKADCKRTTPGRRVCTCKAGYTGDGIVCL; listed as Homo sapiens)",
    "Quantity": "MIC against E. cloacae",
    "Result unit": "µg/mL",
    "Recorded number": 50
  }
]

====

# Tested on: Aeromonas hydrophila
# Measurement description: MIC against Gram-negative bacteria: Aeromonas hydrophila
# Type: cell-based
# Measurement conditions: 96-well plate, 5×10^5 CFU/mL, 37° C., 10 h
# Protocol: 1. Gram-negative bacteria, such as E. coli BL21, Pseudomonas aeruginosa, Klebsiella pneumonia, Enterobacter cloacae, Aeromonas hydrophila, Citrobacter diversus, Moraxella catarrhalis, Proteus mirabilis, Proteus vulgaris, Serratia marcescens, etc were streaked on solid LB medium and cultured respectively. Then, typical clones were picked, inoculated into common liquid LB medium respectively, and cultured at 37° C. with shaking at 185 rpm until the McFarland specific turbidity was 0.5. […]
Listing of entries alongside the reported MIC A. hydrophila.
Quantity: MIC A. hydrophila (µg/mL)

[
  {
    "Substance": "PRT691 (DINECDEAEAASPLCVNARCLNTDGSFRCICRPGFAPTHQPHHCA; listed as Homo sapiens)",
    "Assay system": "Aeromonas hydrophila",
    "Recorded number": 12.5
  },
  {
    "Substance": "PRT652 (DLDECAFPGVCPSGVCTNTAGSFSCKDCDGGYRPSPLGDSCE; listed as Homo sapiens)",
    "Assay system": "Aeromonas hydrophila",
    "Recorded number": 25
  },
  {
    "Substance": "PRT655 (DVDECATTDPCVGGHCVNTEGSFNCLCETGFQPSPESGECV; listed as Homo sapiens)",
    "Assay system": "Aeromonas hydrophila",
    "Recorded number": 25
  },
  {
    "Substance": "PRT643 (RVVICHLPCMNGGQCSSRDKCQCPPNFTGKLCQ; listed as Homo sapiens)",
    "Assay system": "Aeromonas hydrophila",
    "Recorded number": 25
  },
  {
    "Substance": "PRT688 (DVDECQLFRDQVCKSGVCVNTAPGYSCYCSNGYYYHTQRLECI; listed as Homo sapiens)",
    "Assay system": "Aeromonas hydrophila",
    "Recorded number": 25
  },
  {
    "Substance": "PRT613 (CQCSDNIDPNAVGNCNRLTGECLKCIYNTAGFYCDRCKDGFFGNPLAPNPADKCKA; listed as Homo sapiens)",
    "Assay system": "Aeromonas hydrophila",
    "Recorded number": 12.5
  },
  {
    "Substance": "PRT711 (GDNMCRVNNGGCSTLCLAIPGGRVCACADNQLLDENGTTCT; listed as Homo sapiens)",
    "Assay system": "Aeromonas hydrophila",
    "Recorded number": 50
  },
  {
    "Substance": "PRT665 (GIDRCAAGATNVCGPGTCVNLPDGYRCVCSPGYQLHPSQAYCT; listed as Homo sapiens)",
    "Assay system": "Aeromonas hydrophila",
    "Recorded number": 50
  }
]
